Hey, just so you know, these numbers are from patent US20230374151A1.

Target: T1, TnMUC1 peptide (fully glycosylated), biotinylated
T1 construct: Two batches (36-2 and 65-1) of the same peptide; also called 36-2; 7-36-2
Test: SPR (Biacore T200), peptide 36-2 on CAP chip, scFv as analyte, 1:1 fit; average, restated in nM
Record form. Attribute: pKd. Fill in for each entry.
Here pKd is given on a logarithmic scale as minus log10 of the concentration in mol/L.

Entry humanised anti-TnMUC1 scFv protein 11P12 (94A), L1-H5 (scFv, Supernatant of construct 6D12 in the Octet assay; purified 11P12 elsewhere; also called 6D12) scFv: ELVMTQSPDSLAVSLGERATINCKSSQSLLNSGDQKNYLTWYQQKPGQPPKLLIYWASTRESGVPDRFSGSGSGTDFTLTISSLQAEDVAVYYCQNDYSYPLTFGQGTKLEIKGGGGSGGGGSGGGGSGGGGSQVQLVQSGAEVKKPGSSVKVSCKASGYTFTDHAIHWVRQAPGQGLEWIGHFSPGNTDIKYNDKFKGRATLTVDRSTSTAYMELSSLRSEDTAVYFCKTSTFFFDYWGQGTTVTVSSAAAHHHHHH ; pKd = 7.27

Value of measured pKd for the entry humanised anti-TnMUC1 scFv protein 13P18 (19A), L2-H5 (scFv, Supernatant of construct 6D18 in the Octet assay; purified 13P18 elsewhere. scFv of CAR MB025; also called 6D18) scFv: DIVMTQSPDSLAVSLGERATINCKSSQSLLNSGDQKNYLTWYQQKPGQPPKLLIFWASTRESGVPDRFSGSGSGTDFTLTISSLQAEDVAVYYCQNDYSYPLTFGQGTKLEIKGGGGSGGGGSGGGGSGGGGSQVQLVQSGAEVKKPGSSVKVSCKASGYTFTDHAIHWVRQAPGQGLEWIGHFSPGNTDIKYNDKFKGRATLTVDRSTSTAYMELSSLRSEDTAVYFCKTSTFFFDYWGQGTTVTVSSAAAHHHHHH : 7.15

The recorded pKd for entry humanised anti-TnMUC1 scFv protein 11P6 (89A), L0-H5 (scFv, Supernatant of construct 6D6 in the Octet assay; purified 11P6 elsewhere; also called 6D6) scFv: DIVMTQSPDSLAVSLGERATINCKSSQSLLNSGDQKNYLTWYQQKPGQPPKLLIYWASTRESGVPDRFSGSGSGTDFTLTISSLQAEDVAVYYCQNDYSYPLTFGQGTKLEIKGGGGSGGGGSGGGGSGGGGSQVQLVQSGAEVKKPGSSVKVSCKASGYTFTDHAIHWVRQAPGQGLEWIGHFSPGNTDIKYNDKFKGRATLTVDRSTSTAYMELSSLRSEDTAVYFCKTSTFFFDYWGQGTTVTVSSAAAHHHHHH equals 7.57

Record humanised anti-TnMUC1 scFv protein 16P4 (82A), L0-H3 (scFv, Supernatant of construct 6D4 in the Octet assay; purified 16P4 elsewhere. scFv of CAR MB021; also called 6D4) scFv: DIVMTQSPDSLAVSLGERATINCKSSQSLLNSGDQKNYLTWYQQKPGQPPKLLIYWASTRESGVPDRFSGSGSGTDFTLTISSLQAEDVAVYYCQNDYSYPLTFGQGTKLEIKGGGGSGGGGSGGGGSGGGGSQVQLVQSGAEVKKPGSSVKVSCKASGYTFTDHAIHWVRQAPGQGLEWMGHFSPGNTDIKYNDKFKGRVTITADKSTSTAYMELSSLRSEDTAVYYCKTSTFFFDYWGQGTTVTVSSAAAHHHHHH . Reported pKd: 6.71
